# System: U251 CNS
# method_summary: NCI tumour cell line growth inhibition, 48 h
property: TGI

Consider the following illustrative entries.
CC(Oc1ccccc1Cl)C(=O)NN1C(=O)CSC1c1ccccc1 (configuration not stated) | > 100 µM
COc1cccc(N=N/C(=N\NC(=O)c2ccc(C)cc2)c2ccc(N(CCC#N)CCC#N)cc2C)c1 | > 100 µM
C=CCC1C(O[Si](C)(C)C(C)(C)C)C(CO[Si](C)(C)C(C)(C)C)OC1n1ccc(=O)[nH]c1=O (configuration not stated) | 5.66 µM
C/C(=N\Nc1nc2ccccc2n1C)c1cc2ccccc2cn1 | 4.59 µM
CCOP(=O)(OCC)/C(=C/c1cccs1)CC(C)=O | > 100 µM
Cc1nc(N)c(N2CCN(CN)CC2)c(=O)[nH]1 | > 100 µM
CC(=O)OCC(=O)[C@@]12OC(C)(C)O[C@@H]1C[C@H]1[C@@H]3CC(C=O)=C4C=C(OCCCl)CC[C@]4(C)[C@@]3(F)[C@@H](O)C[C@@]12C | 48.5 µM
CN(C)CCn1c(CO)nc2c1c(=O)n(C)c(=O)n2C | > 100 µM

Give TGI for each of the items listed below.
1. CCOC(=O)CCn1ncc(Cl)c(Cl)c1=O
2. Cc1cccc(C)c1NC(=O)CCc1nc(=S)[nH][nH]1

**Result**
["17.1 µM", "> 100 µM"]

* * *

# Tested on: HL-60(TB) leukemia
# method_summary: NCI tumour cell line growth inhibition, 48 h
property: TGI (µM)
Give bare numbers, in µM.

Consider the following illustrative entries.
CC(C)Cc1ccc(C(C)CC2=CCC(CN(C)C)C2=O)cc1 (centres undefined) | 4.47
CCc1cc2c(c3c1CCCC3=O)CC1(Cc3ccc(C(=O)OC)cc3C1)C2 (centres undefined) | 55.4
CC(=O)NC1C(OCc2ccccc2)OC(CO)C(O)C1OC(C)C(=O)NC(C(=O)NC(CCC(=O)NCCCCNc1c2ccccc2nc2cccc([N+](=O)[O-])c12)C(N)=O)C(C)C (centres undefined) | 6.77

**Query** Any idea what TGI was measured for CN1CCc2c1nc(-c1ccc(Cl)cc1)c1c2N(C)CC1 ?
**Result** 47.4

* * *

# System: SK-MEL-28 melanoma
# method_summary: NCI tumour cell line growth inhibition, 48 h
Is TGI at least 30 µM? Then Satisfied. If not, Not satisfied.

CC(Oc1ccccc1Cl)C(=O)NN1C(=O)CSC1c1ccccc1 (configuration not stated) | Satisfied
C=CCO/N=C(\OC(=O)c1ccc([N+](=O)[O-])cc1)c1ccccc1 | Satisfied
O=[N+]([O-])c1cccc(N=Nc2c(O)c(S(=O)(=O)O)cc3cc(S(=O)(=O)O)ccc23)c1 | Satisfied
CN(C)CCCNc1ccc2nnn3c4ccc(O)cc4c(=O)c1c23 | Not satisfied
NCC(O)CSCc1ccc(Cl)cc1 (configuration not stated) | Satisfied
CC1(C)CC2(CC(C)(C)N1O)NC(=O)OC2=O | Satisfied
COc1ccc(-c2nc(-c3nc4ccc(F)cc4[nH]3)c3ccccn23)cc1 | Satisfied
COC(=O)C1C(O)C(C)C(O)C(C)C=C(C)C2=C3C(=C(C)C(=O)c4c(O)c(c(C)c(OC(C)=O)c43)NC(=O)C(C)=C/C=C\C(C)C(O)C(C)C1O)OCO2 (configuration not stated) | Satisfied
COc1cc2c(cc1OCCCCCCN1CCN(CC(=O)Nc3ccc(Cl)cc3C(=O)c3ccccc3Cl)CC1)N=CC1CCCN1C2=O (configuration not stated) | Not satisfied
CC(=O)O[C@]1(C)OC(=O)[C@@H](CC(C)C)N1[N+](=O)[O-] | Satisfied

**Query** Determine whether this compound has TGI no lower than 30 µM: O=c1/c(=C\c2ccc(F)cc2)sc2n1C(c1ccc(F)cc1)C1=C(N=2)c2ccc3ccccc3c2OCC1 (configuration not stated)
**Result** Satisfied

**Query** Could you tell me if the measured TGI of CN(C)/N=N/c1nc2c(c(=O)n(C)c(=O)n2C)n1CC(O)CO (configuration not stated) reaches 30 µM or more?
**Result** Satisfied

**Query** Decide: TGI of COc1ccc(C(=O)C(CC2C(=O)NC(=O)NC2=O)c2ccc(OC)cc2)cc1 (configuration not stated) >= 30 µM?
**Result** Satisfied
